# Test system: Gaeumannomyces graminis var. tritici (Ggt)
# Experimental protocol: In vitro Assay: mycelial growth of Ggt on minimal media agar plates containing test compound
# Type: cell-based
# Settings: Gaeumannomyces graminis; 0.1 ppm in minimal media agar; dark, 19-20° C., 4 to 5 days; diameter of mycelial growth; read-out: In vitro (ppm) 0.1, Percent Inhibition
Would you mind classing the entries by inhibition at 0.1 ppm? Ranges: bottom = under 10%, middle = from 10% up to 20%, top = 20% and over

1. C[Si](C)(C)c1cccc(Cl)c1C(=O)NCCF [Example 155]	bottom
2. CC(C)(C)OC(=O)Nc1c(Cl)cccc1[Si](C)(C)C [Example 111]	middle
3. CCN(CC)C(=O)c1cccc(F)c1[Si](C)(C)C(C)(C)C [Example 9]	bottom

The entry to classify is CCN(CC)C(=O)c1c(C)cccc1[Si](C)(C)C [Example 3] ; which class holds it?
middle

Now this one: CCN(CC)C(=O)c1c(C)cccc1C(C)(C)C [Example 6]
bottom

Now this one: CCNC(=O)c1cc(N=C=S)ccc1[Si](C)(C)C [Example 245]
top

Now this one: C[Si](C)(C)c1cccc(Cl)c1C(=O)NC(c1ccccc1)n1nnc2ccccc21 (centres unmarked) [Example 170]
middle

Now this one: CCCSC(=O)c1c(Cl)cccc1[Si](C)(C)C [Example 79]
middle

Now this one: Cc1ccccc1NC(=O)c1c(Br)cccc1[Si](C)(C)C [Example 120]
bottom

Now this one: C=CC[Si](C)(C)c1cccc(Cl)c1C(=O)NCC [Example 179]
top

Now this one: C=CCN(SC)C(=O)c1sc(Cl)cc1[Si](C)(C)C [Example 273]
top

Now this one: CCNC(=O)c1c(Cl)cccc1OC(C)(C)C [Example 89]
middle

Now this one: C#CCNC(=O)c1c(I)cccc1[Si](C)(C)C [Example 208]
bottom

---

# Tested on: Gaeumannomyces graminis var. tritici (Ggt)
# Experimental protocol: In vitro Assay: mycelial growth of Ggt on minimal media agar plates containing test compound
# Type: cell-based
# Settings: Gaeumannomyces graminis; 0.1 ppm in minimal media agar; dark, 19-20° C., 4 to 5 days; diameter of mycelial growth; read-out: In vitro (ppm) 0.1, Percent Inhibition
Classification field: enter t for inhibition at 0.1 ppm values not below 20%, f for values below it.

A selection of reference data follows.
1) CCN(CC)C(=O)c1c(C)cc(C)cc1[Si](C)(C)C	f
2) CCNC(=O)c1sc(C=O)cc1[Si](C)(C)C	f
3) CC[C@H](C)NC(=O)c1c(Cl)cccc1[Si](C)(C)C	f

Form field: inhibition at 0.1 ppm at least 20%? Entry: "COCCNC(=O)c1c(Cl)cccc1[Si](C)(C)C"
f

Now this one: "CCN(CC)C(=O)c1c(Br)ccc(F)c1[Si](C)(C)C"
f

Now this one: CCNC(=O)C1=CSC(Cl)N1[Si](C)(C)C (stereo not shown)
f

---

# System: Gaeumannomyces graminis var. tritici (Ggt)
# Experimental protocol: In vitro Assay: mycelial growth of Ggt on minimal media agar plates containing test compound
# Format: cell-based
# Settings: Gaeumannomyces graminis; 0.1 ppm in minimal media agar; dark, 19-20° C., 4 to 5 days; diameter of mycelial growth; read-out: In vitro (ppm) 0.1, Percent Inhibition
Measured parameter: inhibition at 0.1 ppm

1. C[Si](C)(C)c1cccc(Cl)c1C(=O)NCC(F)(F)F	19%

Quick batch: inhibition at 0.1 ppm for everything below.
1. CCC(C)SC(=O)c1c(Cl)cccc1[Si](C)(C)C (stereo not shown)
2. CCNC(=O)c1c(C)cccc1[Si](C)(C)C
3. CCNC(=O)c1c([Si](C)(C)C)ccc(Br)c1Cl
4. CCNC(=O)c1sncc1[Si](C)(C)C

1. < 0%
2. 74%
3. 75%
4. 19%

Quick batch: inhibition at 0.1 ppm for everything below.
1. CCN(Cc1ccccc1)C(=O)c1c(Cl)cccc1[Si](C)(C)C
2. CCNC(=O)c1oc([Si](C)(C)C)cc1[Si](C)(C)C
3. CN(C(=O)c1c(Cl)cccc1[Si](C)(C)C)C(C)(C)C
4. CCN(CC)C(=O)c1c(Cl)cccc1[Si](CC)(CC)CC
5. CCN(CC)C(=O)c1c(Cl)ccc(F)c1[Si](C)(C)C

["3%", "3%", "< 0%", "< 0%", "53%"]

---

# Tested on: Gaeumannomyces graminis var. tritici (Ggt)
# Experimental protocol: In vitro Assay: mycelial growth of Ggt on minimal media agar plates containing test compound
# Assay type: cell-based
# Settings: Gaeumannomyces graminis; 1 ppm in minimal media agar; dark, 19-20° C., 4 to 5 days; diameter of mycelial growth; read-out: In vitro (ppm) 1, Percent Inhibition
Classification field: enter rule met for inhibition at 1 ppm values not below 20%, rule not met for values below it.

A selection of reference data follows.
1. CCN(CC)C(=S)c1c(C)cccc1[Si](C)(C)C	rule not met
2. CCNC(=O)c1cc([N+](=O)[O-])ccc1[Si](C)(C)C	rule not met
3. CCOP(=O)(OCC)N(CC)C(=O)c1c(Cl)cccc1[Si](C)(C)C	rule met
4. CCNC(=O)c1c([Si](C)(C)C)ccc(I)c1Cl	rule met

Form field: inhibition at 1 ppm at least 20%? Entry: "C=Cc1ccc([Si](C)(C)C)c(C(=O)NCC)c1Cl"
rule met

Now this one: "CCN(CC)C(=O)c1c(C(=O)OC)ccc(F)c1[Si](C)(C)C"
rule not met

Now this one: "CCN(CC)C(=O)c1c(Cl)cc(C)cc1[Si](C)(C)C"
rule not met

Now this one: "CCNC(=O)c1c([Si](C)(C)C)csc1Cl"
rule not met

Now this one: "CCNC(=O)c1c([Si](C)(C)C)ccc(C=O)c1Cl"
rule met

Now this one: "CCN(COC)C(=O)c1ccccc1[Si](C)(C)C"
rule not met

---

I'd appreciate it if you could supply inhibition at 0.1 ppm values for the items below.
# System: Gaeumannomyces graminis var. tritici (Ggt)
# Experimental protocol: In vitro Assay: mycelial growth of Ggt on minimal media agar plates containing test compound
# Type: cell-based
# Settings: Gaeumannomyces graminis; 0.1 ppm in minimal media agar; dark, 19-20° C., 4 to 5 days; diameter of mycelial growth; read-out: In vitro (ppm) 0.1, Percent Inhibition
# Experimental: The test compounds (0.25 mL of an appropriate stock solution in acetone) are incorporated into 25 mL minimal media agar [(prepared by autoclaving a solution of 17.5 g Czapek Dox broth (Difco), 7.5 g purified agar or Bacto-agar (Difco), and 500 mL distilled/deionized water, and then adding 50 μL of 1 mg/mL thiamine hydrochloride and 50 μL of 1 mg/mL biotin in 5% ethanol] and plates are prepared. […]
One number for each entry, in %.

Check out these entries, answers already filled in.
1) CCNC(=O)n1nccc1[Si](C)(C)C [Example 284]	23
2) CCNC(=O)c1c([Si](C)(C)C)ccc(C(=O)OC)c1Cl [Example 244]	10
3) CCNC(=O)c1c(Cl)ccc(N)c1[Si](C)(C)C [Example 233]	28

Quick batch: inhibition at 0.1 ppm for everything below.
1. CCNC(=O)c1c(F)cccc1[S+]([O-])C(C)(C)C (stereo not shown) [Example 194]
2. CCNC(=O)c1c(Cl)cccc1[Si](C)(C)C(C)(C)C [Example 185]
3. CC(C)N(O)C(=O)c1c(Cl)cccc1[Si](C)(C)C [Example 167]
4. CCN(CC)C(=O)c1c(Cl)cccc1[Si](C(C)C)(C(C)C)C(C)C [Example 68]

[82, 48, 46, 8]

---

# System: Gaeumannomyces graminis var. tritici (Ggt)
# Experimental protocol: In vitro Assay: mycelial growth of Ggt on minimal media agar plates containing test compound
# Assay type: cell-based
# Settings: Gaeumannomyces graminis; 1 ppm in minimal media agar; dark, 19-20° C., 4 to 5 days; diameter of mycelial growth; read-out: In vitro (ppm) 1, Percent Inhibition
Classification field: enter class 1 for inhibition at 1 ppm values not below 30%, class 0 for values below it.

1) C[Si](C)(C)c1cccc(Cl)c1C(=O)Nc1ccccc1 [Example 16]	class 0
2) CCNC(=O)c1c(F)cccc1S(=O)(=O)C(C)(C)C [Example 280]	class 0
3) CCNC(=O)c1c([Si](C)(C)C)ccc(Br)c1Cl [Example 220]	class 1
4) CCNC(=O)c1c(Cl)cccc1-c1ccccc1C [Example 72]	class 1
5) C[Si](C)(C)c1cccc(Cl)c1C(=O)NCCO [Example 27]	class 0

Form field: inhibition at 1 ppm at least 30%? Entry: CCNC(=O)c1c(Br)cccc1[Si](C)(C)C [Example 176]
class 1

Now this one: CCNC(=O)c1cc(Cl)ccc1[Si](C)(C)C [Example 213]
class 1

Now this one: CCNC(=O)c1c([Si](C)(C)C)ccc(/C=C/[N+](=O)[O-])c1Cl [Example 241]
class 1

Now this one: CCNC(=O)c1cccc([N+](=O)[O-])c1[Si](C)(C)C [Example 246]
class 0

Now this one: CN(Cc1ccc(C(F)(F)F)cc1)C(=O)c1c(Cl)cccc1[Si](C)(C)C [Example 103]
class 1
